// provenance: PubChem BioAssay (NCI)

Tested on: SF-539 CNS
Experiment: NCI tumour cell line growth inhibition, 48 h
recorded_metric: TGI (µM)
Just the number in µM, nothing appended.

Request: What TGI appears in the records for this molecule with SF-539 CNS? `CNCCCn1c2c(c3ccc(F)cc3c1=O)C(=O)c1cc(OC)cnc1-2`
Response: 1.36

Request: // lookup TGI | system=SF-539 CNS | key= `CC1(C)CC(=O)c2c(ccc(C(=O)C[C@@H](N)CO)c2N)O1`
Response: 5.22

Request: Record COC(=O)c1ccc(C)cc1CC1Cc2c(C)cccc2C1=O (centres undefined) : what is its TGI with SF-539 CNS?
Response: 22.3

Request: Given the entry CC(=O)C1=C(C)N(c2ccccc2)C2(O)C=CC(=O)C3=C(O)c4ccccc4C(=O)C312 (centres undefined) , what TGI was observed with SF-539 CNS?
Response: 46.7

Request: Recorded TGI for `CCN(CC)CC(=O)Nc1ccc2c(c1)C(=O)c1ccc(NC(=O)CN(CC)CC)cc1C2=O` with SF-539 CNS, please?
Response: 30.9

Request: Form field: TGI recorded for `CCCCN1CCN(c2ccc3nc(-c4ccc5nc(-c6ccc(OCC)c(OCC)c6)[nH]c5c4)[nH]c3c2)CC1` with SF-539 CNS (enter value)
Response: 2.56

Request: Query for SF-539 CNS: what TGI does the record show for CCN1C(=O)N(CC)C2C1NN=c1s/c(=C\c3cccc([N+](=O)[O-])c3)c(=O)n12 (centres undefined) ?
Response: 0.396

Request: What is its TGI for SF-539 CNS? Entry: Brc1ccc(C2SCc3nc4ccccc4n32)cc1 (centres undefined)
Response: 34.3

Request: Give recorded TGI with SF-539 CNS for the following molecule: `CCN(Cc1cccc(F)c1F)c1ccc(CO)c(Cl)c1`
Response: 30.2

Request: What measured TGI is associated with `C#CC(=O)OCC#CCOC(=O)C#C` on SF-539 CNS?
Response: 28.8

Request: Form field: TGI recorded for `CC(=O)c1cccc(NC(=O)c2ccc(NC3=C(Cl)C(=O)N(Cc4ccccc4)C3=O)cc2)c1` with SF-539 CNS (enter value)
Response: 28.7

Request: Please tell me: TGI of `N=C(N)SCc1ccc([N+](=O)[O-])cc1[N+](=O)[O-]` , system SF-539 CNS?
Response: 25.7

====

System: SNB-75 CNS
Experiment: NCI tumour cell line growth inhibition, 48 h
recorded_metric: TGI (µM)
Provide the reading as a plain figure in µM.

Request: Param item = `CC(C)(O)CCc1ccc(O)c2c(=O)c3c(O)c4c(cc3oc12)O[C@H]1OC=C[C@@]41O` ; retrieve measured TGI.
Response: 10.1

Request: I would be grateful if you could share the reported TGI for `COc1ccc(Oc2cc(NCCC(F)(F)F)c3ncc(-c4ccc(C(=O)NC5CC5)c(C)c4)n3n2)c(F)c1F` .
Response: 31.1

Request: What value of TGI has been reported for the following molecule? `CCN(Cc1cccc(F)c1F)c1ccc(CO)c(Cl)c1`
Response: 40.5

Request: Which TGI is reported for this molecule? COc1cc(NC(C)CCCN)c2ncccc2c1Sc1ccc(Cl)cc1 (centres undefined)
Response: 3.42

====

Test system: HL-60(TB) leukemia
Experiment: NCI tumour cell line growth inhibition, 48 h
Would you mind telling me the reported TGI of each entry?

Request: Look up TGI for this compound: Cc1cccc(C(=O)O)c1CC1NCCC2c3ccccc3NC12 (stereo not given)
Response: > 100 µM

Request: Which TGI reading was recorded for the compound `COc1cc(Nc2nc3ccccc3nc2C(C)C)cc(OC)c1OC` ?
Response: > 100 µM

Request: Look up TGI for this compound: `Cc1[nH]c(=O)nc(N(CCO)/N=C/c2ccc(Cl)cc2)c1C(=O)Nc1ccc(Cl)cc1`
Response: > 100 µM

Request: # input compound: `O=[N+]([O-])c1ccc(COc2cccc3cccnc23)cc1` ; wanted: its TGI
Response: 22.3 µM

Request: Could you tell me which TGI is on file for `CNC(=O)c1cc2c(Oc3ccc(NC(=S)NC(=O)Cc4ccccc4)cc3F)ccnc2cc1OC` ?
Response: > 100 µM

====

Test system: DU-145 prostate
Assay: NCI tumour cell line growth inhibition, 48 h
recorded_metric: TGI

Request: Which TGI is listed for COc1ccc(C(=O)OC2C(OC3C(O)COC(O[C@H]4C[C@H]5[C@@H]6CC=C7C[C@@H](O)CC[C@]7(C)[C@H]6CC[C@]5(C)[C@H]4[C@H](C)C(=O)CCC(C)C)C3OC(C)=O)OCC(O)C2O)cc1 (stereo partly specified) ?
Response: 24.3 µM

Request: Request the reported TGI associated with `CC[C@H]1C=CCC[C@@]2(C[C@@H]3CC[C@@H]4[C@H](C(=O)OCCCCCCCCCCCCCCCC(=O)N(CCCNC(C)=O)C[C@H](CCNC(C)=O)OC(C)=O)[C@]5(CCC[C@@H](C)O5)NC(=[N+]34)N2)O1`
Response: 1.59 µM

Request: Need TGI, item `Cc1cc(C)c2c(=O)cc(-c3ccc4ccccc4c3)[nH]c2n1`
Response: > 100 µM

Request: Any idea what TGI was measured for `CCCCN1CCN(c2ccc3nc(-c4ccc5nc(-c6ccc(OCC)c(OCC)c6)[nH]c5c4)[nH]c3c2)CC1` ?
Response: 2.21 µM

Request: Consider the compound shown here: NC(CO)C(=O)NCC(=O)O (stereo unspecified) What is its recorded TGI?
Response: > 100 µM

Request: Bench note: what TGI did COc1cc2cc(C(=O)N3CC(CCl)c4c3cc(O)c3ccccc43)[nH]c2c(OC)c1OC (stereo unspecified) show?
Response: > 50 µM

Request: Reported TGI, compound `CN(C)c1ccc(/C=N/NC(=O)c2cccc3ccccc23)c(Cl)c1` : ____
Response: > 100 µM

Request: Fill in the blank: the reported TGI of `CCN(CC)c1ccc(/C=C/C=C(/C#N)C(N)=S)cc1` is ____.
Response: > 100 µM

Request: Entry `Oc1ccccc1C=Nc1ccccc1N=Cc1ccccc1O.[Cu+2]` : reported TGI = ?
Response: 18.5 µM

Request: Suppose we examine the compound CC(OC(=O)N(N(CCCl)S(C)(=O)=O)S(C)(=O)=O)c1ccc([N+](=O)[O-])cc1 (stereo unspecified) ; what TGI value has been reported?
Response: > 100 µM

Request: Return reported TGI; argument: `COc1cccc(C=C2N=C(C)N(n3c(-c4ccccc4)nc4ccccc4c3=O)C2=O)c1`
Response: > 100 µM

====

System: MCF7 breast
Experiment: NCI tumour cell line growth inhibition, 48 h
recorded_metric: TGI (µM)
Return type: number; implicit unit µM.

Request: I have this compound here, `CCOC(=O)C1=C(C)NC(C)=C(C(=O)OCC)C1c1ccc(C)cc1` , and I need its recorded TGI.
Response: 47.3

Request: Entry COC(=O)C1C(O)C(C)C(O)OC1C(C)C(O)C(C)/C=C\C=C(/C)C(=O)Nc1c(C)c(OC(C)=O)c2c(c1O)C(=O)C(C)=C1OCOC(/C(C)=C/C(C)=O)=C12 (stereo not drawn) has what TGI?
Response: 26.8

Request: TGI lookup needed for `Nc1c2c(nc3ccccc13)CCCc1ccccc1-2` , thanks.
Response: 29.2

Request: What does the record list as TGI for COc1cc2c(cc1O)C(c1cc(O)c(O)c(OC)c1)C(O)(C(=O)O)C(CO)C2O (stereo not drawn) ?
Response: 42.5

Request: Bench note: what TGI did COc1ccc(C(=O)OC2C(OC3C(O)COC(O[C@H]4C[C@H]5[C@@H]6CC=C7C[C@@H](O)CC[C@]7(C)[C@H]6CC[C@]5(C)[C@H]4[C@H](C)C(=O)CCC(C)C)C3OC(C)=O)OCC(O)C2O)cc1 (stereo partly drawn) show?
Response: 0.532

Request: Reported TGI for `CC(=O)OCCOCCN1CCN(c2c(O)c3c(c(O)c2Cl)C(=O)C=CC3=O)CC1` : what is it?
Response: 0.976

Request: Need TGI of `CC(=O)/C(=C\c1c(-c2ccccc2)[nH]c2ccccc12)S(=O)(=O)c1ccccc1` , thanks.
Response: 9.36

Request: So what does the record say about TGI for `C[C@]12CC[C@@H]3c4ccc(O)cc4CC[C@H]3[C@@H]1CC[C@@H]2NS(=O)(=O)c1ccc2ccccc2c1` ?
Response: 9.48

====

Please go through the items and note down their TGI.
Test system: SK-MEL-2 melanoma
Assay: NCI tumour cell line growth inhibition, 48 h

Request: # returns recorded TGI (system: SK-MEL-2 melanoma) for `Cc1cc(C)c(C(=O)/C=C/c2ccccc2)c(C)c1`
Response: 30.8 µM

Request: Query for SK-MEL-2 melanoma: what TGI does the record show for CC(OC(=O)N(N(CCCl)S(C)(=O)=O)S(C)(=O)=O)c1ccc([N+](=O)[O-])cc1 (stereo not drawn) ?
Response: > 100 µM

Request: # value lookup — system SK-MEL-2 melanoma, readout TGI, item `COc1ccc2c(c1)CCN1C3=C(CCC3)C(=O)C[C@@H]21`
Response: > 100 µM

Request: // map `COc1cc2c(cc1OC)[C@@H]([C@H](O)c1ccccc1)NCC2` to recorded TGI (system: SK-MEL-2 melanoma)
Response: > 100 µM

Request: Entry `COc1cc2cc3c4c(cc(OC)c(OC)c4c2cc1OC)CCN3C(=O)CCC(=O)O` , system SK-MEL-2 melanoma: what TGI was measured?
Response: > 100 µM

Request: API: value(readout= TGI, system= SK-MEL-2 melanoma, query= `COc1ccc(C#CC2=C(c3cc(OC)c(OC)c(OC)c3)C(=O)OC2)cc1` )
Response: > 50 µM

Request: // fetch SK-MEL-2 melanoma TGI for `CNCCCn1c2c(c3ccc(F)cc3c1=O)C(=O)c1cc(OC)cnc1-2`
Response: 7.37 µM

Request: Request - read-out TGI | tested on SK-MEL-2 melanoma | compound `CCN(Cc1cccc(F)c1F)c1ccc(CO)c(Cl)c1`
Response: 22.6 µM

Request: // fetch SK-MEL-2 melanoma TGI for `COc1ccc(N(C(=O)NCCO)c2ccccc2)cc1`
Response: > 100 µM

Request: # query: TGI | item `CC(=O)c1cccc(NC(=O)c2ccc(NC3=C(Cl)C(=O)N(Cc4ccccc4)C3=O)cc2)c1` | system: SK-MEL-2 melanoma
Response: 11.5 µM

Request: Give SK-MEL-2 melanoma TGI for `O=C(CCc1ccc(O)cc1)NCCCNC(=O)CCc1ccc(O)cc1`
Response: > 100 µM

Request: # query: TGI | item `COc1cc(C(=O)OCCn2[nH]c(-c3ccc(Cl)cc3)nc2=S)cc(OC)c1OC` | system: SK-MEL-2 melanoma
Response: > 100 µM

Request: Provide the documented TGI with SK-MEL-2 melanoma as the system for CC12CCC(O)CC1=CCC1C2CCC2(C)C(c3cccnc3)=CCC12 (stereo not drawn)
Response: > 100 µM

Request: Param readout= TGI; system= SK-MEL-2 melanoma; entry= `Cc1ccc(C)c(COCCOCn2c(=O)[nH]c(=O)c3cc(Br)ccc32)c1` ; returns value.
Response: > 100 µM

Request: // lookup TGI | system=SK-MEL-2 melanoma | key= `Cc1nn(-c2ccccc2)c2nc3ccc(Cl)cc3c(-c3ccccc3)c12`
Response: > 100 µM

Request: Quick check: TGI on SK-MEL-2 melanoma, item `CCCC#CCOC(=O)c1cc([N+](=O)[O-])cc([N+](=O)[O-])c1` ?
Response: > 100 µM

Request: Provide the documented TGI with SK-MEL-2 melanoma as the system for O=C1CSC(C(N=Nc2ccc(Cl)cc2)c2nc3ccccc3[nH]2)=N1 (stereo not drawn)
Response: 41.8 µM

Request: API: value(readout= TGI, system= SK-MEL-2 melanoma, query= `COc1cc2ccc(CC(N)=O)cc2cc1OC` )
Response: > 100 µM

Request: Return TGI measured with SK-MEL-2 melanoma given this compound: COC(=O)C(=O)C(CC(=O)Nc1cccc(C(F)(F)F)c1)C(=O)OC (stereo not drawn)
Response: > 100 µM

Request: Query for SK-MEL-2 melanoma: what TGI does the record show for `Cc1ccc(C(=O)N=Nc2c(O)[nH]c3ccc(Cl)cc23)cc1` ?
Response: > 50 µM

Request: Kindly state the measured TGI obtained for `Cc1ncc(-c2ccnc(Nc3ccc(S(C)(=O)=O)cc3)n2)n1C(C)C` with SK-MEL-2 melanoma.
Response: 3.17 µM

Request: State its TGI on SK-MEL-2 melanoma: `CCCCN1C(=O)CS/C1=N/Nc1nc2c([nH]1)c(=O)n(C)c(=O)n2C`
Response: > 100 µM

Request: Look up TGI with SK-MEL-2 melanoma for this compound: `CNc1nc2c(C)ccc3[nH]c(N(C)C)nc3c-2n1`
Response: > 100 µM

Request: What value of TGI on SK-MEL-2 melanoma does `Cc1cnc(SCCN2CCN(C)CC2)nc1-c1cc2ccccc2s1` have?
Response: 30.9 µM

Request: SK-MEL-2 melanoma / TGI / `CC(=O)OC(=C(C#N)C#N)c1nccnc1C(C)=O` : value?
Response: > 20 µM

Request: Any idea what TGI came out for CCCCS(=O)CC(CO)NC(=O)/C=C/c1c(C)[nH]c(=O)[nH]c1=O (stereo not drawn) on SK-MEL-2 melanoma?
Response: 23.4 µM

Request: Reported TGI for SK-MEL-2 melanoma, given `Cn1c(C(C)(C)OC(=O)Oc2ccccc2)cnc1[N+](=O)[O-]` ?
Response: > 100 µM

Request: Find the measured TGI: item `CC(=O)c1ccccc1NS(=O)(=O)c1ccc2nc(C)n(NS(=O)(=O)c3ccccc3C(C)=O)c(=O)c2c1` , target or system SK-MEL-2 melanoma.
Response: > 100 µM
